Biological target: Transcription initiation factor TFIID subunit 1 (Homo sapiens, UniProt P21675)
Sequence (P21675 whole entry, the tested form may be a part): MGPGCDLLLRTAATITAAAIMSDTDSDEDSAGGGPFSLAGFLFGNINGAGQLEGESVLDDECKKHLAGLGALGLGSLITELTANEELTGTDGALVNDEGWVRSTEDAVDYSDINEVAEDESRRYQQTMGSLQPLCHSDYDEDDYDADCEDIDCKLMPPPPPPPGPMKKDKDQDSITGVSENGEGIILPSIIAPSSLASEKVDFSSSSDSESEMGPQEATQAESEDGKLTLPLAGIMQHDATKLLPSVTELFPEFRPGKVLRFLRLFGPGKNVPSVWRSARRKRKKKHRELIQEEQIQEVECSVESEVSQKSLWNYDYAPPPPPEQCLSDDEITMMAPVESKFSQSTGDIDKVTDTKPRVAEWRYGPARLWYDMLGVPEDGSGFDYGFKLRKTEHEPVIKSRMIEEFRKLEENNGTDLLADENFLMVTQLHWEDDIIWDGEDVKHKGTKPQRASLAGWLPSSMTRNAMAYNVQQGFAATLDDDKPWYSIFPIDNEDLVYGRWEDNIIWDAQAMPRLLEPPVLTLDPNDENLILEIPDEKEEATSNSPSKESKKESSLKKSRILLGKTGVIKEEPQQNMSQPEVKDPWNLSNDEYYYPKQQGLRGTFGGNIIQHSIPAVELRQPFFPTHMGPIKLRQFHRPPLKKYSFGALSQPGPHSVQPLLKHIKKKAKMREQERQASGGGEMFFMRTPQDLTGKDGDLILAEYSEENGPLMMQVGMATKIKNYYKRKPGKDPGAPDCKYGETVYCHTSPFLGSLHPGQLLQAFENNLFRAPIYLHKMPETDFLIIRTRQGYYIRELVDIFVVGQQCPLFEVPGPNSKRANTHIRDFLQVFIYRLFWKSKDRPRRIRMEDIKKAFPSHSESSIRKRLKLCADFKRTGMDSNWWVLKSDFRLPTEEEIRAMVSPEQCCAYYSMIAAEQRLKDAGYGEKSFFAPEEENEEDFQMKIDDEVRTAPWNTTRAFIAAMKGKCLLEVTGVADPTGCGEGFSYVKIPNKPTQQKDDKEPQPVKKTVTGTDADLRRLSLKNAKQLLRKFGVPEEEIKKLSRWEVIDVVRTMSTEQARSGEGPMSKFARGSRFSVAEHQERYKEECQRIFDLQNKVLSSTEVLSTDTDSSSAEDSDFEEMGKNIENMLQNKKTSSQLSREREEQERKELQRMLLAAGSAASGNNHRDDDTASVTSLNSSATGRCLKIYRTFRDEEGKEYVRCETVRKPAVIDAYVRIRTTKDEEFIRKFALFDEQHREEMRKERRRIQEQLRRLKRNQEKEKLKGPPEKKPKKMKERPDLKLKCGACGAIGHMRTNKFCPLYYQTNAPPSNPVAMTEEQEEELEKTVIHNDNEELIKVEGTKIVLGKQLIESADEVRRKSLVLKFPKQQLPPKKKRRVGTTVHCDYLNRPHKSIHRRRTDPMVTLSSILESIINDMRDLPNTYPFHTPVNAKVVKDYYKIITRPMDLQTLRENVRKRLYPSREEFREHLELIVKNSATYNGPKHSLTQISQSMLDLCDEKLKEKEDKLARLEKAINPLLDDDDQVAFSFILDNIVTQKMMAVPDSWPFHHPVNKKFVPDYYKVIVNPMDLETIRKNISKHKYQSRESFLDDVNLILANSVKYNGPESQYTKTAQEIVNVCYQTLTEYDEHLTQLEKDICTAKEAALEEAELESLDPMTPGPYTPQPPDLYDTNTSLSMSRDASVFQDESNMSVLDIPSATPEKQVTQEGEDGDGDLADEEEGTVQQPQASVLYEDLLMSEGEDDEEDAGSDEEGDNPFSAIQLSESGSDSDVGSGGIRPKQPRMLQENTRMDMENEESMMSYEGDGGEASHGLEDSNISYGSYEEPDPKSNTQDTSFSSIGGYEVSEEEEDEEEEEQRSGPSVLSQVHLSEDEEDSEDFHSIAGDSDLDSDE
Experiment: Displacement of biotinylated probe from human TAF1 bromodomain 2 (1522 to 1656 residues) expressed in Escherichia coli BL21 (DE3) by alphascreen assay
pIC50: −log10 of the molar value.
measurementType: pIC50

Below are worked cases with known answers.
molecule	assayResult
CC[C@@H]1C(=O)N(C)c2cnc(Nc3ccc(C(=O)NC4CCN(C)CC4)cc3OC(C)C)nc2N1C1CCCC1	6.68
COc1cc(C(=O)N2CCC(O)CC2)ccc1Nc1cc2c(cc1OC)N(C)C(=O)[C@@H](C)N2C1CCCC1	6.12
C[C@@H]1C(=O)N(C)c2ccc(Nc3ccc(C(=O)NC4CCN(C)CC4)cc3)nc2N1C1CCCC1	6.47

I. COc1cc(C(=O)N2CCC(O)CC2)ccc1Nc1ccc2c(n1)N(C1CCCCCC1)[C@H](C)C(=O)N2C
II. C=CCN1C(=O)[C@@H](C)N(C2CCCC2)c2nc(Nc3ccc(C(=O)N4CCC(O)CC4)cc3OC)ccc21
III. COc1cc(C(=O)NC2CCN(C)CC2)ccc1Nc1ccc2c(n1)N1CCCC[C@@H]1C(=O)N2C
Qu. I would appreciate it if you could sort these 3 molecules by pIC50, starting from the smallest number. Please respond by ranking the labels in the order requested.
Ans. II, I, III
(II: 5.77, I: 6.62, III: 7.20)

* * *

Target: Bromodomain-containing protein 4 (Homo sapiens)
Experiment: Displacement of Bio-JQ1 from recombinant human His6 tagged BRD4 bromodomain 1 by alphascreen assay
measurementType: IC50 (nM)

molecule	measurementType	endpointUnit	assayResult
CC[C@@H]1C(=O)N(C)c2cnc(Nc3ccc(C(=O)NC4CCN(C)CC4)cc3OC3CCC3)nc2N1C1CCCC1	IC50	nM	62
COc1cc(C(=O)NC2CCN(C)CC2)ccc1Nc1ccc2c(n1)N1CCCC[C@@H]1C(=O)N2C	IC50	nM	2700
CC[C@@H]1C(=O)N(C)c2cnc(Nc3ccc(C(=O)NC4CCN(C)CC4)cc3)nc2N1C1CCCC1	IC50	nM	280
CC[C@@H]1C(=O)N(CC)c2cnc(Nc3ccc(C(=O)NC4CCN(C)CC4)cc3OC)nc2N1C1CCCC1	IC50	nM	690
CC[C@@H]1C(=O)N(C)c2cnc(Oc3ccc(C(=O)NC4CCN(C)CC4)cc3OC)nc2N1C1CCCC1	IC50	nM	620

a. COc1cc(C(=O)N2CCC(O)CC2)ccc1Nc1ccc2c(n1)N(C1CCOCC1)[C@H](C)C(=O)N2C
b. CC[C@@H]1C(=O)N(C)c2cnc(Nc3ccc(C(=O)NC4CCN(C)CC4)cc3OC(C)C)nc2N1C1CCCC1
Qu. Pick one: a or b . Which one has the lower reported IC50? Let me know the label of the one you choose.
Ans. b
(b: 63 nM, a: 140 nM)

* * *

Target: Transcription initiation factor TFIID subunit 1 (Homo sapiens, UniProt P21675)
Experiment: Displacement of biotinylated probe from human TAF1 bromodomain 2 (1522 to 1656 residues) expressed in Escherichia coli BL21 (DE3) by alphascreen assay
pIC50: −log10 of the molar value.
measurementType: pIC50

Below are worked cases with known answers.
entrySmiles	pIC50
CC[C@@H]1C(=O)N(C)c2cnc(Nc3ccc(C(=O)NC4CCN(C)CC4)cc3OC3CCCC3)nc2N1C1CCCC1	7.00
C=CCCN1C(=O)[C@@H](C)N(C2CCCC2)c2nc(Nc3ccc(C(=O)N4CCC(O)CC4)cc3OC)ccc21	6.24
C[C@@H]1C(=O)N(C)c2cnc(Nc3ccc(C(=O)NC4CCN(C)CC4)cc3)nc2N1C1CCCC1	7.06
CC[C@@H]1C(=O)N(C)c2cnc(Nc3ccc(C(=O)NC4CCN(C)CC4)cc3OC3CCC3)nc2N1C1CCCC1	6.96

I. COc1cc(C(=O)NC2CCN(C)CC2)ccc1Nc1ccc2c(n1)N(C1CCCC1)[C@H](C)C(=O)N2C
II. COc1cc(C(=O)N2CCC(O)CC2)ccc1Nc1ccc2c(n1)N(C1CCCC1)[C@H](C)C(=O)N2C
III. COc1cc(C(=O)N2CCC(O)CC2)ccc1Nc1ccc2c(c1)N(C1CCCC1)[C@H](C)C(=O)N2C
Qu. Thanks in advance: please rank these 3 entries by pIC50, highest to lowest. Please respond by ranking the labels in the order requested.
Ans. I, II, III

* * *

Molecular target: Transcription initiation factor TFIID subunit 1 (Homo sapiens, UniProt P21675)
Experiment: Displacement of biotinylated probe from human TAF1 bromodomain 2 (1522 to 1656 residues) expressed in Escherichia coli BL21 (DE3) by alphascreen assay
pIC50: −log10 of the molar value.
measurementType: pIC50

entrySmiles	pIC50
C[C@@H]1C(=O)N(C)c2ccc(Nc3ccc(C(=O)NC4CCN(C)CC4)cc3OC3CCCC3)nc2N1C1CCCC1	7.51
COc1cc(C(=O)N2CCC(O)CC2)ccc1Nc1cc2c(cc1F)N(C)C(=O)[C@@H](C)N2C1CCCC1	5.34
CC(C)Oc1cc(C(=O)NC2CCN(C)CC2)ccc1Nc1ncc2c(n1)N(C1CCCC1)[C@H](C)C(=O)N2C	6.49

I. COc1cc(C(=O)N2CCC(O)CC2)ccc1Nc1ccc2c(n1)N(C1CCCCC1)[C@H](C)C(=O)N2C
II. CC[C@@H]1C(=O)N(CC)c2cnc(Nc3ccc(C(=O)NC4CCN(C)CC4)cc3OC)nc2N1C1CCCC1
III. COc1cc(C(=O)N2CCC(O)CC2)ccc1Nc1ccc2c(c1C)N(C)[C@H](C)C(=O)N2C
Qu. Thanks in advance: please rank these 3 entries by pIC50, highest to lowest. Please respond by ranking the labels in the order requested.
Ans. I, II, III
(I: 7.14, II: 6.39, III: 6.01)

* * *

Biological target: Transcription initiation factor TFIID subunit 1 (Homo sapiens)
Experiment: Displacement of biotinylated probe from human TAF1 bromodomain 2 (1522 to 1656 residues) expressed in Escherichia coli BL21 (DE3) by alphascreen assay
measurementType: IC50 (nM)

a. CC[C@@H]1C(=O)N(C)c2ccc(Nc3ccc(C(=O)NC4CCN(C)CC4)cc3OC)nc2N1C1CCCC1
b. COc1cc(C(=O)N2CCC(O)CC2)ccc1Nc1ccc2c(n1)N(C1CCOCC1)[C@H](C)C(=O)N2C
c. CC[C@@H]1C(=O)N(C)c2cnc(Nc3ccc(C(=O)NC4CCN(C)CC4)cc3)nc2N1C1CCCC1
Qu. Arrange these molecules by their IC50, starting with the largest number. Please respond by ranking the labels in the order requested.
Ans. a, c, b

* * *

Molecular target: Bromodomain-containing protein 4 (Homo sapiens, UniProt O60885)
Assay: Displacement of Bio-JQ1 from recombinant human His6 tagged BRD4 bromodomain 1 by alphascreen assay
measurementType: IC50 (nM)

molecule	endpointUnit	IC50
CC(C)Oc1cc(C(=O)NC2CCN(C)CC2)ccc1Nc1ncc2c(n1)N(C1CCCC1)[C@H](C)C(=O)N2C	nM	220
COc1cc(C(=O)N2CCC(O)CC2)ccc1Nc1cc2c(cc1C)N(C)C(=O)[C@@H](C)N2C1CCCC1	nM	2100
C[C@@H]1C(=O)N(C)c2ccc(Nc3ccc(C(=O)NC4CCN(C)CC4)cc3)nc2N1C1CCCC1	nM	190
C[C@@H]1C(=O)N(C)c2cnc(Nc3ccc(C(=O)NC4CCN(C)CC4)cc3)nc2N1C1CCCC1	nM	68
CC[C@@H]1C(=O)N(C)c2cnc(Nc3ccc(C(=O)NC4CCN(C)CC4)cc3OC3CCCC3)nc2N1C1CCCC1	nM	33

I. COc1cc(C(=O)NC2CCN(C)CC2)ccc1Nc1ccc2c(n1)N(C1CCOCC1)[C@H](C)C(=O)N2C
II. COc1cc(C(=O)N2CCC(O)CC2)ccc1Nc1ccc2c(n1)N(C1CCC(C)(C)C1)[C@H](C)C(=O)N2C (mixture of isomers)
III. COc1cc(C(=O)N2CCC(O)CC2)ccc1Nc1ccc2c(n1)N(C1CCCCCC1)[C@H](C)C(=O)N2C
IV. COc1cc(C(=O)N2CCC(O)CC2)ccc1Nc1cc2c(cc1OC)N(C)C(=O)[C@@H](C)N2C1CCCC1
Qu. Thanks in advance: please rank these 4 entries by IC50, highest to lowest. Please respond by ranking the labels in the order requested.
Ans. IV, III, II, I

1. CC[C@@H]1C(=O)N(C)c2cnc(N(C)c3ccc(C(=O)NC4CCN(C)CC4)cc3OC)nc2N1C1CCCC1
2. COc1cc(C(=O)N2CCC(O)CC2)ccc1Nc1ccc2c(n1)N(Cc1ccccc1)[C@H](C)C(=O)N2C
3. COc1cc(C(=O)N2CCC(O)CC2)ccc1Nc1ccc2c(n1)N(C1CCCC1)[C@H](C)C(=O)N2C
4. CC[C@@H]1C(=O)N(C)c2ccc(Nc3ccc(C(=O)NC4CCN(C)CC4)cc3OC)nc2N1C1CCCC1
5. COc1cc(C(=O)N2CCC(O)CC2)ccc1Nc1ccc2c(n1)N1CCCC[C@@H]1C(=O)N2C
Qu. I would appreciate it if you could sort these 5 molecules by IC50, starting from the smallest number. Please respond by ranking the labels in the order requested.
Ans. 3, 1, 4, 2, 5
